Cited source for all entries: patent US5707966A

Measured Kass Xa by item
biological target: factor Xa (Homo sapiens, UniProt P00742); construct: Human factors X, Xa, IXa, XIa, and XIIa are purchased; purchased Enzyme Research Laboratories, South Bend, Ind; assay: Kass with factor Xa, chromogenic substrate; format: biochemical; conditions: substrate N-Benzoyl-Ile-Glu-Gly-Arg-p-nitroanilide
Sequence (P00742 235-488 limits assumed): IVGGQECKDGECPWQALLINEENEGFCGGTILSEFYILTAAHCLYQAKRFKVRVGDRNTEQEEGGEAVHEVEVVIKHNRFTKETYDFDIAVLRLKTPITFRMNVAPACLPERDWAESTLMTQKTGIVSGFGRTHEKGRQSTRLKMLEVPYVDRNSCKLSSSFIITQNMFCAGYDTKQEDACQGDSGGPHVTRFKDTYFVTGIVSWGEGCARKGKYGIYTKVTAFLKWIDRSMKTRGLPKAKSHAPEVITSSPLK
Sequence (P00742 41-179 partner limits assumed): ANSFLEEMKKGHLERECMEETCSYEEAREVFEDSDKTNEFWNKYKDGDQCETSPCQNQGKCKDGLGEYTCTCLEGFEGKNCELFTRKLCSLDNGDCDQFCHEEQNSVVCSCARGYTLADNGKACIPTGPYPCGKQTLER
Counter-ions that a name gives are not always drawn.

Reference set, count: 4
>  <compound>
NCc1ccc(CNC(=O)[C@@H]2CCCN2C(=O)[C@H](N)Cc2ccccc2)cc1 [Example 10, D-Phe-Pro-p-NHCH2 C6 H4 CH2 NH2.HCl]

>  <Kass Xa>
0.000024 × 10^6 (L/mole)

$$$$
>  <compound>
N=C(N)c1ccc(CNC(=O)CN(CCc2ccccc2)C(=O)CNCC(=O)O)cc1 [Example 89]

>  <Kass Xa>
0.071 × 10^6 (L/mole)

$$$$
>  <compound>
CCC(CC)C(=O)N[C@@H](CCC(=O)O)C(=O)N1CCC[C@H]1C(=O)NCc1ccc(C(=N)N)cc1 [Example 90]

>  <Kass Xa>
0.002 × 10^6 (L/mole)

$$$$
>  <compound>
O=C(O)CN[C@H](CC1CCCCC1)C(=O)N1CCC[C@H]1C(=O)NCCC1CCNCC1 [Example 54]

>  <Kass Xa>
< 0.001 × 10^6 (L/mole)

$$$$

(Q) Looking for the measured Kass Xa of O=C(O)CN[C@H](CC1CCCCC1)C(=O)N1CCC[C@H]1C(=O)NCC1CCNCC1 [Example 53] , can you help?
(A) < 0.001 × 10^6 (L/mole)

(Q) What about this compound? N=C(N)c1cccc(CCCNC(=O)[C@@H]2CCCN2C(=O)[C@@H]2NCC[C@@H]3CCCC[C@@H]32)c1 [Example 33]
(A) 0.04 × 10^6 (L/mole)

(Q) // same read-out, input: Nc1ccc(CNC(=O)[C@@H]2CCCN2C(=O)[C@@H](CC2CCCCC2)NCC(=O)O)c(F)c1 [Example 64]
(A) 0.01 × 10^6 (L/mole)

(Q) What about this compound? N=C(N)N1CCC(CCNC(=O)[C@@H]2CCCN2C(=O)[C@@H](CC2CCCCC2)NCC(=O)O)CC1 [Example 57]
(A) 0.01 × 10^6 (L/mole)

(Q) And then N=C(N)N1CCC(CNC(=O)[C@@H]2CCCN2C(=O)[C@@H](CC2CCCCC2)NCC(=O)O)CC1 [Example 56] , what is it?
(A) 0.20 × 10^6 (L/mole)

(Q) Another: N=C(N)c1cccc(CNC(=O)[C@@H]2CCCN2C(=O)[C@@H]2NCC[C@@H]3CCCC[C@@H]32)c1 [Example 25]
(A) < 0.001 × 10^6 (L/mole)

(Q) Another: Nc1ccc(CCNC(=O)[C@@H]2CCCN2C(=O)[C@H](N)Cc2ccccc2)cc1 [Example 14, D-Phe-Pro-p-NHCH2 CH2 C6 H4 NH2.HCl]
(A) 0.00014 × 10^6 (L/mole)

(Q) Same question, CCS(=O)(=O)N[C@H](Cc1ccccc1)C(=O)N1CCC[C@H]1C(=O)NCCCc1ccc(C(=N)N)cc1 [Example 30] this time
(A) 0.02 × 10^6 (L/mole)

(Q) And the next one, N=C(N)c1cccc(CCNC(=O)[C@@H]2CCCN2C(=O)[C@@H]2NCC[C@@H]3CCCC[C@@H]32)c1 [Example 29] ?
(A) 0.02 × 10^6 (L/mole)

(Q) Cool, now N=C(N)c1ccc(CNC(=O)[C@@H]2CCCN2C(=O)[C@H]2C[C@H]3CCCC[C@H]3CN2)cc1 [Example 19, D-3-Piq-Pro-p-NHCH2 C6 H4 C(NH)NH2.3HCl]
(A) 0.14 × 10^6 (L/mole)

(Q) Also check N=C(N)c1ccc(CNC(=O)[C@@H]2C[C@@H]3CCCC[C@@H]3N2C(=O)[C@@H](CC2CCCCC2)NCC(=O)O)cc1 (relative stereo) [Example 49]
(A) 3.4 × 10^6 (L/mole)

(Q) What do you get for CC(C)CC[C@H]1C[C@@H](C(=O)NCc2ccc(C(=N)N)cc2)N(C(=O)[C@@H](CC2CCCCC2)NCC(=O)O)C1 (relative stereo) [Example 50] ?
(A) 4.3 × 10^6 (L/mole)
